- METHOD: anti-hPAP western blot, lysates and secreted fractions
- EXPERIMENTAL PARAMETERS: glycan lost; control: wild-type r-hPAP
PROPERTY MEASURED: expression_or_secretion

* secretory human prostatic acid phosphatase (hPAP, S-PAP): N188Q (protein) parent chain: MRAAPLLLARAASLSLGFLFLLFFWLDRSVLAKELKFVTLVFRHGDRSPIDTFPTDPIKESSWPQGFGQLTQLGMEQHYELGEYIRKRYRKFLNESYKHEQVYIRSTDVDRTLMSAMTNLAALFPPEGVSIWNPILLWQPIPVHTVPLSEDQLLYLPFRNCPRFQELESETLKSEEFQKRLHPYKDFIATLGKLSGLHGQDLFGIWSKVYDPLYCESVHNFTLPSWATEDTMTKLRELSELSLLSLYGIHKQKEKSRLQGGVLVNEILNHMKRATQIPSYKKLIMYSAHDTTVSGLQMALDVYNGLLPPYASCHLTELYFEKGEYFVEMYYRNETQHEPYPLMLPGCSPSCPLERFAELVGPVIPQDWSTECMTTNSHQGTEDSTD | decreases
* secretory human prostatic acid phosphatase (hPAP, S-PAP): N62Q, N188Q (protein) parent chain: MRAAPLLLARAASLSLGFLFLLFFWLDRSVLAKELKFVTLVFRHGDRSPIDTFPTDPIKESSWPQGFGQLTQLGMEQHYELGEYIRKRYRKFLNESYKHEQVYIRSTDVDRTLMSAMTNLAALFPPEGVSIWNPILLWQPIPVHTVPLSEDQLLYLPFRNCPRFQELESETLKSEEFQKRLHPYKDFIATLGKLSGLHGQDLFGIWSKVYDPLYCESVHNFTLPSWATEDTMTKLRELSELSLLSLYGIHKQKEKSRLQGGVLVNEILNHMKRATQIPSYKKLIMYSAHDTTVSGLQMALDVYNGLLPPYASCHLTELYFEKGEYFVEMYYRNETQHEPYPLMLPGCSPSCPLERFAELVGPVIPQDWSTECMTTNSHQGTEDSTD | decreases
